target: AM2 S31 (wild-type serine at position 31 in the M2 protein), influenza virus A/Udorn/72 (Influenza A virus); assay: cell-based; details: 100 uM; Xenopus oocytes; activity range class; read-out: S31 OOcyte Inhibition at 100 uM (%)
Sequence (P0DOF5 whole entry, looked up): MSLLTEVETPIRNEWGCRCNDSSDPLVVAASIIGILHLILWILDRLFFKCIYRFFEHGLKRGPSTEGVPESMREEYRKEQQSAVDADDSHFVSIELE

| compound | inhibition at 100 µM |
| --- | --- |
| c1coc(CNC23CC4CC(CC(C4)C2)C3)c1 [Example 69a, Adamantan-1-yl-furan-2-ylmethyl-amine] | 31 to 95% |
| CC(C)c1csc(CNC23CC4CC(CC(C4)C2)C3)n1 [Example 84a] | 0 to 30% |
| CC(=O)c1ccc(CNC23CC4CC(CC(C4)C2)C3)cc1 [Example 44a] | 0 to 30% |
| COc1ccc(C(C)NC23CC4CC(CC(C4)C2)C3)cc1 (centres unmarked) [Example 11a] | 31 to 95% |
| Oc1ccc(CNC23CC4CC(CC(O)(C4)C2)C3)c(O)c1 [Example 196a] | 0 to 30% |
| c1cc(CNC23CC4CC(CC(C4)C2)C3)co1 [Example 66a, Adamantan-1-yl-furan-3-ylmethyl-amine] | 31 to 95% |
| c1cc2cc(CNC34CC5CC(CC(C5)C3)C4)ccc2s1 [Example 41a] | 31 to 95% |
| c1cc(CNC23CC4CC(CC(C4)C2)C3)cc(-c2ccco2)c1 [Example 30a] | 0 to 30% |
| c1cc(-c2nc(CNC34CC5CC(CC(C5)C3)C4)no2)cs1 [Example 143a] | 0 to 30% |
| c1cc(C2CC2)ccc1CNC12CC3CC(CC(C3)C1)C2 | 31 to 95% |
| c1ccc(-c2nc(CNC34CC5CC(CC(C5)C3)C4)c[nH]2)cc1 [Example 114a] | 31 to 95% |
| Oc1cc(-c2ccccc2)ccc1CNC12CC3CC(CC(C3)C1)C2 [Example 47a] | 0 to 30% |
| Cc1oc(-c2cccs2)nc1CNC12CC3CC(CC(C3)C1)C2 [Example 145a] | 0 to 30% |
| c1coc(-c2ccc(CNC34CC5CC(CC(C5)C3)C4)s2)c1 [Example 136a] | 0 to 30% |
